System: NCI/ADR-RES ovarian
Test: NCI tumour cell line growth inhibition, 48 h
Below is a list of entries, each paired with its recorded GI50 value.

compound	GI50
CCN1C(=O)N(CC)C2C1NC(=S)N2/N=C/C=C/c1cccs1 (stereo not drawn)	0.296 µM
O=c1[nH]c2cc(Cl)ccc2n1C1CCN(CCCC(c2ccc(F)cc2)c2ccc(F)cc2)CC1	1.74 µM
COC(=O)[C@@H](NC(=O)[C@@H](OC)[C@@H]1Cc2cc3cc(OC4CC(OC5CC(O)C(O)C(C)O5)C(O)C(C)O4)c(C)c(O)c3c(O)c2C(=O)[C@H]1OC1CC(OC2CC(OC3CC(C)(O)C(O)C(C)O3)C(O)C(C)O2)C(O)C(C)O1)C(C)C (stereo partly drawn)	23.7 µM
Fc1ccc(Nc2cc(-n3nnc4ccccc43)nc3ccccc23)cc1	56.3 µM
Cc1ccc(N(CSc2ccc(Cl)cc2)CSc2ccc(Cl)cc2)cc1	1.38 µM
Cc1cc(NC(=O)c2ccc(C)c(Nc3nccc(-c4cccnc4)n3)c2)cc(-n2cnc(C)c2)c1	7.18 µM
Cc1sc2nc(NCCc3c[nH]c4ccc(Cl)cc34)[nH]c(=O)c2c1C	3.07 µM
CC(=O)c1c(CBr)n([O-])c2ccccc2[n+]1=O	19.5 µM
